Data provenance is patent US8389739B1.

target: mLXRα (Liver X receptor alpha) (Mus musculus); construct: 172-455; expressed in transfected cells; host or cells: CHO cells, transient transfection; test: Transcriptional assay of LXRα (Gal4-LXRα hybrid); format: cell-based; settings: Table 6; read-out: Potency (EC50) at mLXRα
Sequence (Q9Z0Y9 172-445 limits assumed): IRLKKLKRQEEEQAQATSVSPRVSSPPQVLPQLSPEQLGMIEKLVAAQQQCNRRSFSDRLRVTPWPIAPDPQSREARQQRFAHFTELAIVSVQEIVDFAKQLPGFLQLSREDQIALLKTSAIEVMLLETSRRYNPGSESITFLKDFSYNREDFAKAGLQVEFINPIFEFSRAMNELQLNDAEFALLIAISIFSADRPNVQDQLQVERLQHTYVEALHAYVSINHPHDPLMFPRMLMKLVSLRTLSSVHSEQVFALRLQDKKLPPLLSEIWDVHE
experimental.readout: EC50

### Prompt Tell me the measured EC50 of CCn1c(CNc2ccc(Cl)cc2)nnc1SCC(=O)Nc1cccc2ccccc12 [OR-133008] , please.
### Response > 10 µM

### Prompt Query O=S(=O)(c1ccccc1)N(CC(F)(F)F)c1ccc(C(O)(C(F)(F)F)C(F)(F)F)cc1 [Compound T0901317, reference compound] next
### Response 0.1 to 1 µM

### Prompt Query CC(=O)O[C@H]1CC[C@@]2(C)C(CC[C@]3(C)C2C(=O)C=C2C4[C@@H](C)[C@H](C)CC[C@]4(C(=O)O)CC[C@]23C)C1(C)C (stereo in doubt) [OR-13571] next
### Response > 10 µM

### Prompt Query CCN(c1ccc(C(O)(C(F)(F)F)C(F)(F)F)cc1)S(=O)(=O)c1ccc([N+](=O)[O-])cc1 [OR-1050] next
### Response 1 to 10 µM

### Prompt Query COc1c(C=NNc2nc(N3CCCCC3)nc(N3CCCCC3)n2)cccc1[N+](=O)[O-] [OR-2161] next
### Response > 10 µM

### Prompt Query COC(C)CCC(C)C1CCC2C3CC(O)C4CC(O)CCC4(C)C3CCC12C (stereo not drawn) [OR-12872] next
### Response > 10 µM
